test system: PC-3; test: NCI tumour cell line growth inhibition, 48 h
Activity calls are given as the source filed them. No stated cut-off is given here; in the data, active = GI50 up to about 1.1 µM and inactive = higher.
// allowed return values: yes (1) (active), no (0) (inactive)

>  <compound>
CCCCCCCCCc1cccc(N2C(N)=NC(N)=NC2(C)C)c1

>  <labelValue>
yes (1)

$$$$
>  <compound>
COc1ccc(C2=NNC(c3cc4cc(Br)ccc4nc3Cl)C2)cc1 (stereo not drawn)

>  <labelValue>
no (0)

$$$$
>  <compound>
O=C(CSC1=NCCN1)c1ccccc1

>  <labelValue>
no (0)

$$$$
>  <compound>
COc1ccc2c(CC(=O)O)cc(=O)oc2c1

>  <labelValue>
no (0)

$$$$

Field: outcome | Entry: CC(C)Cn1cnc2c(Sc3c([N+](=O)[O-])ncn3C)nc(N)nc21
no (0)

Field: outcome | Entry: CCCCCCCCCCCCCCCCC1=CC(=O)C=C(OC)C1=O
no (0)

Field: outcome | Entry: C=CCC1(O)CC(n2cc(C)c(=O)[nH]c2=O)OC1CO[Si](C)(C)C(C)(C)C (stereo not drawn)
no (0)

Field: outcome | Entry: C/C(=N\Nc1nc2cc(C(F)(F)F)ccc2s1)c1ccccn1
no (0)

Field: outcome | Entry: CN(C)CCNC(=O)c1cccc2c1Oc1cccc([N+](=O)[O-])c1O2
no (0)

Field: outcome | Entry: O=C1C(c2c(O)[nH]c3ccccc23)=Nc2ccc(Br)cc21
no (0)

Field: outcome | Entry: COC(=O)c1n[nH]c(C)c1/N=N/N(C)CCC#N
no (0)

Field: outcome | Entry: O=C(O)CCCc1ccc2c(c1)C(C(=O)O)CC2 (stereo not drawn)
no (0)

Field: outcome | Entry: N#CC1=C(N)N(/N=C/c2ccccc2)C(c2ccccc2)C1(C#N)C#N (stereo not drawn)
no (0)

Field: outcome | Entry: Cc1c(-c2ccccc2)[nH]c2ccc(Cl)cc2c1=O
no (0)

Field: outcome | Entry: N=C(N)NC(=N)Nc1ccccc1.Sc1nc2ccccc2s1
no (0)

Field: outcome | Entry: O=C(Nc1nc(C23CC4CC(CC(C4)C2)C3)cs1)c1cc2ccc(O)cc2oc1=O
no (0)

Field: outcome | Entry: CC(=O)NC1COC(COC(=O)CCCCCCCCCCNC(=O)c2ccc([N+](=O)[O-])c3c(=O)c4ccccc4[nH]c23)C(O)C1OC(C)C(=O)NC(C(=O)NC(CCC(N)=O)C(=O)OCc1ccccc1)C(C)C (stereo not drawn)
no (0)

Field: outcome | Entry: CCc1nc(N)nc(N)c1-c1ccc([N+](C)(C)C)cc1
no (0)

Field: outcome | Entry: CC(=O)CCC[C@H](C)[C@@H](O)[C@@H]1O[C@H]([C@@]2(C)CCC(=O)O2)C[C@H]1C(=O)O
no (0)

Field: outcome | Entry: CC(=O)c1c2c(cc3c1CC1(C3)Cc3cc4c(c(C(C)=O)c3C1)CCCC4)CCCC2
no (0)

Field: outcome | Entry: Cc1ccc(S(=O)(=O)NC(=O)NS(=O)(=O)O)cc1
no (0)

Field: outcome | Entry: Nc1ccccc1CCCC(=O)O
no (0)
